B1: tRNA (parent)
chain: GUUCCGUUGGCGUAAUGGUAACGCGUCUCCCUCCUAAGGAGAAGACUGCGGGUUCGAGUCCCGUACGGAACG

- Variants of: B1
- protocol_details: yeast fitness relative to wild type (ratio to wild type); higher = fitter; tRNA-Arg(CCU), competitive growth, 37 C, YPD
Fewer inactive variants are shown than the library holds.
yeast fitness by entry:
measured_parameter: yeast fitness

change: C5G G17C G58C U59C
lt_gt_eq: =
value: 0.57

change: C27G U32A C34A C55A
lt_gt_eq: ≤
value: 0.5

change: U2A A20U A45C
lt_gt_eq: =
value: 0.728

change: G18A A36G A42U
lt_gt_eq: =
value: 0.691

change: C4A C22A
lt_gt_eq: =
value: 0.706

change: G25C C33U C49A U53A G67A
lt_gt_eq: ≤
value: 0.5

change: G10A G18C A20U C30A
lt_gt_eq: ≤
value: 0.5

change: U28C A37C A69C
lt_gt_eq: ≤
value: 0.5

change: U16G C66U A69C
lt_gt_eq: =
value: 0.728

change: C4A U16C C34U C61A
lt_gt_eq: ≤
value: 0.5

change: U3C U19A A57G
lt_gt_eq: =
value: 0.624

change: U13C A37U C49G
lt_gt_eq: ≤
value: 0.5

change: G12C U32G C33G U47C A57C
lt_gt_eq: ≤
value: 0.5

change: U26C C27U U54G G56A
lt_gt_eq: =
value: 0.54

change: A21U A42U C66U
lt_gt_eq: ≤
value: 0.5

change: C5G A20G A37G C46G A57C
lt_gt_eq: ≤
value: 0.5

change: G9A C27G A40G G52A
lt_gt_eq: ≤
value: 0.5

change: G48C G52C C55U
lt_gt_eq: ≤
value: 0.5

change: U32G G38A C61G A70G
lt_gt_eq: ≤
value: 0.5

change: G25A G56C
lt_gt_eq: =
value: 0.711

change: A21G U47C C49U
lt_gt_eq: =
value: 0.773

change: A14U U26A
lt_gt_eq: =
value: 0.694

change: U16C G56A G67C
lt_gt_eq: =
value: 0.514

change: G9C G48C
lt_gt_eq: =
value: 0.695

change: C4G U7G A36C
lt_gt_eq: ≤
value: 0.5

change: U26A G58U
lt_gt_eq: =
value: 1.03

change: U28C G50U A65C
lt_gt_eq: ≤
value: 0.5

change: C5U G17C C30A
lt_gt_eq: =
value: 0.548

change: G9C C24U U26G A42U G52U
lt_gt_eq: ≤
value: 0.5

change: C11U A20U G39A U64C A65C
lt_gt_eq: ≤
value: 0.5

change: U7C A14C A65G A70C
lt_gt_eq: ≤
value: 0.5

change: G6C A15C A21C C34U A37U
lt_gt_eq: =
value: 0.502

change: C5A A69U A70C
lt_gt_eq: =
value: 0.768

change: U7C U16G C29U C31A C46U
lt_gt_eq: =
value: 0.566

change: U35C U54C
lt_gt_eq: =
value: 0.696

change: U7C G17C A20G C27A G48A
lt_gt_eq: =
value: 0.509

change: C5U C31A C34U A43G
lt_gt_eq: =
value: 0.77

change: C5G C55G A65C G67A
lt_gt_eq: ≤
value: 0.5

change: A40G A45C C60A
lt_gt_eq: ≤
value: 0.5

change: C24A G52A
lt_gt_eq: =
value: 0.752

change: U59G C60G
lt_gt_eq: =
value: 0.638

change: U2A C62U
lt_gt_eq: =
value: 0.899

change: U32C G48C G56A
lt_gt_eq: ≤
value: 0.5

change: C29U C30U U59A G63C
lt_gt_eq: ≤
value: 0.5

change: U3C C4A U16C G17A
lt_gt_eq: ≤
value: 0.5

change: C34U G58C A69U
lt_gt_eq: ≤
value: 0.5
